The measured values listed here are drawn from ChEMBL document CHEMBL3585311.

# assayMethodText: Inhibition of Plasmodium falciparum recombinant carbonic anhydrase
The compounds listed here are annotated with their pKi.
To interpret pKi, take it as minus log10 of a concentration measured in moles per litre.

NS(=O)(=O)c1ccc(NC(=S)NC(=O)Nc2ccc(CC(Cl)Cl)cc2)cc1 :: 6.12

Turning now to a further record.
// recorded pKi for `NS(=O)(=O)c1ccc(NS(=O)(=O)c2ccc(NC(=O)N(c3ccccc3)c3ccccc3)cc2)cc1` : 4.78

====

The molecules listed here are annotated with their log10 Ki.
# assayMethodText: Inhibition of Plasmodium falciparum recombinant carbonic anhydrase
Please keep in mind that the values are log10 of Ki expressed in µM.

// recorded log10 Ki for `Cc1cc(F)c(C)c(NC(=O)NC(=S)Nc2ccc(S(N)(=O)=O)cc2)c1` : -0.29

// recorded log10 Ki for `NS(=O)(=O)c1ccc(Nc2ncsc2Cl)cc1` : -0.79

====

# assayMethodText: Inhibition of Plasmodium falciparum recombinant carbonic anhydrase
measuredParameter: pKi
To interpret pKi, take it as minus log10 of a concentration measured in moles per litre.

CC(Cl)(Cl)c1ccc(NC(=O)NC(=S)Nc2ccc(S(N)(=O)=O)cc2)cc1 :: 6.34
NS(=O)(=O)c1ccc(NC(=S)NC(=O)Nc2ccc(Cl)c(Cl)c2)cc1 :: 6.74
NS(=O)(=O)c1ccc(CNC(=O)N(c2ccccc2)c2ccccc2)cc1 :: 5.22
COc1ccc2oc(=O)cc(CC(=O)c3cc(C(F)(F)F)c(S(N)(=O)=O)cc3S(N)(=O)=O)c2c1 :: 5.60
COc1cc(CC(=O)Nc2ccccc2S(N)(=O)=O)c2ccccc2c1Cl :: 5.37

// recorded pKi for `Cc1ccc(NC(=O)NC(=S)Nc2ccc(S(N)(=O)=O)cc2)s1` : 6.30

// recorded pKi for `NS(=O)(=O)c1ccc(NC(=O)c2cc3ccccc3oc2=O)cc1` : 5.24

// recorded pKi for `NS(=O)(=O)c1ccc(NC(=O)c2ccc(S(N)(=O)=O)cc2)cc1` : 5.52

// recorded pKi for `NS(=O)(=O)c1ccc(NC(=S)NC(=O)Nc2ccc(Cl)cc2)cc1` : 6.49

// recorded pKi for `Cc1c(NC(=O)NC(=S)Nc2ccc(S(N)(=O)=O)cc2)cn2ncccc12` : 6.36

// recorded pKi for `NS(=O)(=O)c1nnc(NS(=O)(=O)c2c(F)c(F)c(F)c(F)c2F)s1` : 5.59

====

# assayMethodText: Inhibition of Plasmodium falciparum recombinant carbonic anhydrase
The compounds listed here are annotated with their log10(Ki).
Please keep in mind that the values are log10 of Ki expressed in µM.

NS(=O)(=O)c1ccc(NNC(=O)c2cc3ccccc3oc2=O)cc1 :: 0.61
NS(=O)(=O)c1cc(S(N)(=O)=O)c(C(F)(F)F)cc1NC(=O)c1cc2ccccc2oc1=O :: 0.96
NS(=O)(=O)c1ccccc1NC(=O)N(c1ccccc1)c1cccc(Cl)c1 :: 0.22
Cc1cc(NC(=O)NC(=S)Nc2ccc(S(N)(=O)=O)cc2)c(Cl)c(C)c1Cl :: -0.29
NS(=O)(=O)c1nnc(NC(=S)NC(=O)Nc2ccccc2)s1 :: 0.83
NC(=S)Nc1ccc(S(N)(=O)=O)cc1 :: 0.32
NS(=O)(=O)c1ccc(CNC(=O)c2cc3ccccc3oc2=O)cc1 :: 0.70
CCN(CC)C(=S)SNCc1ccc(S(N)(=O)=O)cc1 :: 0.92
CC(F)(F)Nc1ccc(S(N)(=O)=O)cc1 :: -0.13
NS(=O)(=O)c1nnc(NS(=O)(=O)C(F)(F)C(F)(F)C(F)(F)C(F)(F)C(F)(F)C(F)(F)C(F)(F)C(F)(F)F)s1 :: -0.72

// recorded log10(Ki) for `Cc1ccc(C)c(N(C(=O)Nc2ccccc2S(N)(=O)=O)c2ccccc2)c1F` : 0.52

// recorded log10(Ki) for `CCN(CC)C(=S)SNc1ccc(S(N)(=O)=O)cc1` : 0.48
